I'd appreciate it if you could supply Average inhibition female (%) values for the items below.
- Test system: P. falciparum female gametocytes
- ASSAY PROTOCOL: P. falciparum Dual Gamete Formation Assay (PfDGFA), female readout (Pfs25-positive female gametes)
- Format: cell-based, Plasmodium falciparum NF54
- MEASUREMENT CONDITIONS: 2µM, 24h preincubation with gametocytes prior to induction of gametogenesis; average of replicates
Answers are plain numbers, in %.

MOLECULE: FC(F)(F)c1ccc2[nH]c(-c3ccc(-c4ccc(CNCCN5CCNCC5)cc4)s3)nc2c1.O=C(O)C(F)(F)F
Average inhibition female (%): 20.7

Hi team, please reply with Average inhibition female (%) for each item in this list.
1. CC(=O)Nc1ccc2[nH]cc(C3CCN(CC4CCC(NC(=O)/C=C/c5ccc(Cl)c(Cl)c5)CC4)CC3)c2n1 (centres unmarked)
2. COc1ccc(CNCc2ccc(F)cc2)cc1-c1ccc(S(=O)(=O)NCCN2CCCC2)cc1.O=C(O)C(F)(F)F
3. CCc1c(CCNCCCCCCNCCc2ccc(OC)c(OC)c2CC)ccc(OC)c1OC.Cl

1. 33.1
2. 26.6
3. 17.9

Hi team, please reply with Average inhibition female (%) for each item in this list.
1. Cl.c1ccc2c(NCCCCCCCCCNc3c4ccccc4nc4ccccc34)c3ccccc3nc2c1
2. Nc1nc(N)c2c(Cl)c(N3CCOCC3)ccc2n1

43.1
8.8

Hi team, please reply with Average inhibition female (%) for each item in this list.
1. COc1ccc2ncc(F)c(CCN3C[C@H](CNCc4nc5c(cc4Cl)OCC(=O)N5)[C@H](O)C3)c2n1.Cl
2. NC1CCN(Cc2ccc(-c3ccc(-c4nc5ccccc5[nH]4)cc3)cc2)C1.O=C(O)C(F)(F)F (centres unmarked)
3. Cl.Clc1ccc(C2CCN(CCCOc3ccc4c(c3)CCNCC4)CC2)cc1

1: 9.3; 2: 15.3; 3: 28.4

----------
- System: P. falciparum female gametocytes
- ASSAY PROTOCOL: P. falciparum Dual Gamete Formation Assay (PfDGFA), female readout (Pfs25-positive female gametes)
- Type: cell-based, Plasmodium falciparum NF54
- MEASUREMENT CONDITIONS: 2µM, 24h preincubation with gametocytes prior to induction of gametogenesis; replicate R4
Please mark met if the recorded % inhibition female (individual replicates) R4 is equal to or greater than 10%, and not met if it falls below.

COMPOUND: COc1ccc2ccccc2c1CCCCN1CCN(CC(c2ccc(F)cc2)N2CCC(N3CCCC3)CC2)CC1.O=C(O)C(F)(F)F (centres unmarked) [TCMDC-135866]
TARGET ENTITY: P. falciparum female gametocytes
ASSIGNED CLASS: met

With those in mind, consider the next compound.
Check this compound for % inhibition female (individual replicates) R4 at or above 10%: CCc1c(CCNCCCCCCNCc2ccc3c(c2CC)OCO3)ccc(OC)c1OC.Cl [TCMDC-132068]
met

----------
I'd appreciate it if you could supply % inhibition female (individual replicates) R3 values for the items below.
- Test system: P. falciparum female gametocytes
- ASSAY PROTOCOL: P. falciparum Dual Gamete Formation Assay (PfDGFA), female readout (Pfs25-positive female gametes)
- Format: cell-based, Plasmodium falciparum NF54
- MEASUREMENT CONDITIONS: PfDGFA at 2µM, 24h preincubation with gametocytes prior to induction of gametogenesis; replicate R3
Answers are plain numbers, in %.

Please review the entries below; each comes with its answer.
SMILES NOTATION: CC1(C)N=C(N)N=C(N)N1OCc1cc(Cl)c(CON2C(N)=NC(N)=NC2(C)C)cc1Cl
QUANTITATIVE RESULT: 11.6
//
SMILES NOTATION: CCCC(CCC)n1ccc2c3c(N)nc(N)nc3ccc21.Cl
QUANTITATIVE RESULT: 19.1
//
SMILES NOTATION: Cl.Nc1ncc(Cc2cc(Cl)c(N)c3ncccc23)c(N)n1
QUANTITATIVE RESULT: -23.8

Hi team, please reply with % inhibition female (individual replicates) R3 for each item in this list.
1. OCc1c(Cl)cc(Cl)cc1CNCCCNc1nc2ccccc2[nH]1
2. CN(c1ncc(-c2cccc(CNCc3ccccc3O)c2)cn1)C1CCCCC1

-10.9
-2.1

----------
- System: P. falciparum male gametocytes
- ASSAY PROTOCOL: P. falciparum Dual Gamete Formation Assay (PfDGFA), male readout (exflagellation)
- Assay type: cell-based, Plasmodium falciparum NF54
- MEASUREMENT CONDITIONS: PfDGFA at 2µM, 24h preincubation with gametocytes prior to induction of gametogenesis; replicate R1
- Experimental: […] The Pf DGFA was performed as described in Delves et al. 2016 [17]. […] Exflagellation was recorded by capturing 10 frames over 1 s under brightfield illumination using a x4 objective with a 1.5x zoom (effectively x6) attached to an automated Nikon Ti fluorescence microscope. […] The plates were then returned to the microscope and female gametes imaged at x6 using fluorescence microscopy. […]
RECORDED METRIC: % inhibition male (individual replicates) R1 (%)
Numbers only, in %.

Please review the entries below; each comes with its answer.
MOLECULE: Cc1nc2nc(N)nc(N)c2c(C)c1Cc1cccc(C#N)c1.Cl
VALUE UNIT: %
QUANTITATIVE RESULT: 10.9
--
MOLECULE: Cc1cc(N[C@@H](CC(C)C)C(=O)NCc2cccs2)nc(NCCc2cccs2)n1.O=C(O)C(F)(F)F
VALUE UNIT: %
QUANTITATIVE RESULT: 11.4
--
MOLECULE: CCOC(=O)c1cc(C(=O)OC)c2ccccn12
VALUE UNIT: %
QUANTITATIVE RESULT: 15.7
--
MOLECULE: CC1(C)N=C(N)N=C(N)N1c1cccc(Cl)c1.Cl
VALUE UNIT: %
QUANTITATIVE RESULT: 4.7

Let us move to another entry and its % inhibition male (individual replicates) R1.
What reported % inhibition male (individual replicates) R1 corresponds to COc1ccc(C2CC(c3cccs3)=NN2C(=O)c2ccccc2)cc1OC (centres unmarked) on P. falciparum male gametocytes?
-16.5

----------
- System: P. falciparum female gametocytes
- ASSAY PROTOCOL: P. falciparum Dual Gamete Formation Assay (PfDGFA), female readout (Pfs25-positive female gametes)
- Assay type: cell-based, Plasmodium falciparum NF54
- MEASUREMENT CONDITIONS: 2µM, 24h preincubation with gametocytes prior to induction of gametogenesis; replicate R1
- Protocol: […] The Pf DGFA was performed as described in Delves et al. 2016 [17]. […] Exflagellation was recorded by capturing 10 frames over 1 s under brightfield illumination using a x4 objective with a 1.5x zoom (effectively x6) attached to an automated Nikon Ti fluorescence microscope. […] The plates were then returned to the microscope and female gametes imaged at x6 using fluorescence microscopy. […]
RECORDED METRIC: % inhibition female (individual replicates) R1 (%)
One number for each entry, in %.

Please review the entries below; each comes with its answer.
COMPOUND: O=C(NCC1CCN(CCN2CCC(c3cn(CCO)c4ccccc34)CC2)CC1)c1ccc(-c2ccc(C(F)(F)F)cc2)cc1 [TCMDC-138856]
QUANTITATIVE RESULT: 24.2
--
COMPOUND: COC(=O)c1ccc(-c2ccc(-c3cccnc3)cc2C)cc1 [TCMDC-139074]
QUANTITATIVE RESULT: 26.9
--
COMPOUND: CN1CCN(CC2(Nc3nccc(NCCc4cn(C)c5ccccc45)n3)CCCCC2)CC1 [TCMDC-135122]
QUANTITATIVE RESULT: 17.1
--
COMPOUND: CN1CCC(NCc2ccc(-c3ccc(S(=O)(=O)NCc4ccccc4)cc3)cc2)CC1.O=C(O)C(F)(F)F [TCMDC-132227]
QUANTITATIVE RESULT: 9.9
--
COMPOUND: Nc1ccc2[nH]cc(C3CCN(CCC4CCN(C(=O)/C=C/c5ccc(Cl)c(Cl)c5)CC4)CC3)c2n1 [TCMDC-140062]
QUANTITATIVE RESULT: 25.9
--
COMPOUND: C[C@H](Cc1ccc(S(=O)(=O)c2ccc(C[C@@H](C)NC[C@H](O)c3cccc(Cl)c3)cc2)cc1)NC[C@H](O)c1cccc(Cl)c1.Cl [TCMDC-131561]
QUANTITATIVE RESULT: 27.9
--
COMPOUND: Cc1c(Cl)cccc1S(=O)(=O)Nc1ccc(CCN2CCC(N)CC2)cc1.Cl [TCMDC-134083]
QUANTITATIVE RESULT: 28.3
--
COMPOUND: COc1ccc2nc(Nc3nc4cnccc4[nH]3)sc2c1 [TCMDC-131950]
QUANTITATIVE RESULT: 12.1
--
COMPOUND: COc1cc2ncnc(Nc3ccc(OCc4ccccc4)c(OCc4ccccc4)c3)c2cc1OC.Cl [TCMDC-131922]
QUANTITATIVE RESULT: 5.3
--
COMPOUND: O=C(O)C(F)(F)F.O=[N+]([O-])c1cccc(CNCC2CCN(Cc3ccc(-c4ccccc4)cc3)CC2)c1 [TCMDC-141208]
QUANTITATIVE RESULT: -1.5

Hi team, please reply with % inhibition female (individual replicates) R1 for each item in this list.
1. CC(C)CC(=O)N(Cc1ccc(-c2ccc(CNC3Cc4ccccc4C3)cc2)cc1)C1CCNCC1.O=C(O)C(F)(F)F [TCMDC-141449]
2. O=C(O)C(F)(F)F.c1cc(-c2ccc(CN3CCCCC3)cc2)cc(-c2nc3ccccc3[nH]2)c1 [TCMDC-133917]
3. COc1cc2ccccc2cc1OCCCN1CCN(CC(c2ccc(F)cc2)N2CCN(C(C)C)CC2)CC1.Cl (stereo not drawn) [TCMDC-135496]
4. CN1CCCC1CCNCc1cccc(-c2cnc(N3CCCC(C)(C)C3)nc2)c1 (stereo not drawn) [TCMDC-133144]
5. CCS(=O)(=O)c1ccc(-c2cnc3[nH]cc(-c4ccc(N)cc4)c3c2)cc1 [TCMDC-132582]

1: 24.4; 2: 8.8; 3: 29.5; 4: 23.0; 5: 25.6
